Each entry below carries its recorded growth.
- System: IGROV1 ovarian
- protocol-text: NCI-60 one-dose screen, 48 h (100 = growth as untreated, 0 = no growth, -100 = all killed)
- study-conditions: 10 µM unless noted
This is part of a sample that, as a whole, favours compounds with a hit. Of some 83,000 tested, about 20% had one in any assay.

{"compound": "CNC(C)[C@H]1CCC2C3CCC4C[C@@H](N(C)C(=O)c5ccccc5)CC[C@]4(C)C3CC[C@@]21C (some centres not stated)", "target-system": "IGROV1 ovarian", "growth [%]": 22.8}
{"compound": "CC(=O)CC(c1cccs1)c1c(-c2ccccc2)[nH]c2ccccc12 (configuration not stated)", "target-system": "IGROV1 ovarian", "growth [%]": 83.3}
{"compound": "Cc1ccc(C(CC(=O)O)c2c(C)[nH][nH]c2=O)cc1 (configuration not stated)", "target-system": "IGROV1 ovarian", "growth [%]": 105}
{"compound": "CCCCCCn1c(-c2ccc(C(=O)O/N=C(\\N)c3ccc4ccccc4c3)cc2)nc(-c2ccccc2)c1-c1ccccc1", "target-system": "IGROV1 ovarian", "growth [%]": -48.3}
{"compound": "COc1cc(C)c(Cc2cnc(N)nc2N)cc1OC", "target-system": "IGROV1 ovarian", "growth [%]": 95.1}
{"compound": "NC1=NC(c2cccc(Br)c2)c2sc3ccc(Cl)cc3c2N1 (configuration not stated)", "target-system": "IGROV1 ovarian", "growth [%]": 77}
{"compound": "O=c1c2cccc(F)c2sc2c(NCCCNCCO)nc3ccccc3c12", "target-system": "IGROV1 ovarian", "growth [%]": 24.2}
{"compound": "CN(C)CCNc1nc2ccccc2c2c(=O)c3cc(F)ccc3sc12", "target-system": "IGROV1 ovarian", "growth [%]": 49}
{"compound": "O=C1COCCN1c1ccc(NCc2cn(C(=O)c3ccc(Cl)cc3)c3ccccc23)cc1", "target-system": "IGROV1 ovarian", "growth [%]": -2.18}
{"compound": "CCCCCCN1C(=O)/C(=c2\\sc3n(c2=O)C2C(NN=3)N(CC)C(=O)N2CC)c2ccccc21 (configuration not stated)", "target-system": "IGROV1 ovarian", "growth [%]": 24.2}
{"compound": "COC(=O)Nc1ccc(-c2nc(-c3cccc(OC)c3)c(-c3ccnc(Br)c3)[nH]2)cc1", "target-system": "IGROV1 ovarian", "growth [%]": 72.5}
{"compound": "CCCCCCCCCCCCCCCCCCOc1ccccc1CC(=O)OCC[N+](CC)(CC)CC", "target-system": "IGROV1 ovarian", "growth [%]": -26.9}
{"compound": "O=C(CSc1nccc(Nc2ccc(S(=O)(=O)Nc3nccs3)cc2)n1)c1ccc(C(F)(F)F)cc1", "target-system": "IGROV1 ovarian", "growth [%]": 91.1}
{"compound": "COc1ccc(C2C(C#N)=C(N)Oc3c2sc2c(C)cccc32)cc1 (configuration not stated)", "target-system": "IGROV1 ovarian", "growth [%]": 23.3}
{"compound": "C=C1CC[C@H](C(C)C)[C@@H]2[C@H]1[C@H]1CC(=C)[C@@H](O)CC[C@@](C)(O)[C@@H]2O1", "target-system": "IGROV1 ovarian", "growth [%]": 107}
{"compound": "O=c1c2cc(F)ccc2sc2c(NCCCNCCO)nc3ccc(F)cc3c12", "target-system": "IGROV1 ovarian", "growth [%]": 43.6}
{"compound": "S=C(c1cccs1)N1CCN(c2cccc(Cl)c2)CC1", "target-system": "IGROV1 ovarian", "growth [%]": 89.9}
{"compound": "CCCCOc1nc2c(C)cccc2cc1-c1cc(-c2ccc(Cl)cc2)nc(-c2ccc(Cl)cc2)c1", "target-system": "IGROV1 ovarian", "growth [%]": 105}
{"compound": "COc1ccc2nc(NCCCNCCO)c3sc4ccc(F)cc4c(=O)c3c2c1", "target-system": "IGROV1 ovarian", "growth [%]": 41.3}
{"compound": "CCOC(=O)C1=C(N)Oc2c(sc3c(CC)cccc23)C1c1ccc(F)cc1 (configuration not stated)", "target-system": "IGROV1 ovarian", "growth [%]": 29.3}
{"compound": "CC(C)C(=O)Nc1ccc(-c2nc(-c3cccc(OCCN4CCOCC4)c3)c(-c3ccnc(Br)c3)[nH]2)cc1", "target-system": "IGROV1 ovarian", "growth [%]": 68.7}
{"compound": "O=C(Nc1ccc(OS(=O)(=O)c2ccc(F)cc2)cc1)c1ccc(Cl)cc1", "target-system": "IGROV1 ovarian", "growth [%]": 95.7}
{"compound": "Cc1cccc2c(=O)c3c(sc12)c(NCc1ccccc1)nc1ccccc13", "target-system": "IGROV1 ovarian", "growth [%]": 74.3}
{"compound": "N[C@@H](Cc1ccccc1)[C@@H](O)C(=O)NCc1ccc(F)cc1", "target-system": "IGROV1 ovarian", "growth [%]": 107}
{"compound": "COc1ccc(C(=O)C[C@]2(O)C(=O)Nc3c(Cl)ccc(Cl)c32)cc1", "target-system": "IGROV1 ovarian", "growth [%]": 34.8}
{"compound": "O=S(=O)(NCCCNc1cc(-c2c(-c3cccc(O)c3)nc3sccn23)ccn1)c1cccc2ccccc12", "target-system": "IGROV1 ovarian", "growth [%]": 30.6}
{"compound": "COc1ccc2sc3c(NCCCN(C)C)nc4ccccc4c3c(=O)c2c1", "target-system": "IGROV1 ovarian", "growth [%]": 54.2}
{"compound": "COc1ccc(C(=S)N2CCN(c3cccc(C)c3)CC2)cc1OC", "target-system": "IGROV1 ovarian", "growth [%]": 42.4}
{"compound": "S=c1nc(-c2ccccc2)oc(=NC2CCCCC2)n1C1CCCCC1", "target-system": "IGROV1 ovarian", "growth [%]": -25.9}
{"compound": "CC(=O)N1CCN(c2ccc(OCC3CO[C@](Cn4ccnc4)(c4ccc(Cl)cc4Cl)O3)cc2)CC1 (some centres not stated)", "target-system": "IGROV1 ovarian", "growth [%]": 80.2}
{"compound": "Cc1ccc(/C=N\\NC(=O)c2[nH]c3ccc(F)cc3c2-c2ccccc2)cc1", "target-system": "IGROV1 ovarian", "growth [%]": 91.4}
{"compound": "NCCNc1nc2ccccc2c2c(=O)c3cc(F)ccc3sc12", "target-system": "IGROV1 ovarian", "growth [%]": 70.9}

====

- Test system: A549/ATCC NSCLC
- protocol-text: NCI-60 one-dose screen, 48 h (100 = growth as untreated, 0 = no growth, -100 = all killed)
- study-conditions: 10 µM unless noted
About 83,000 compounds went through this panel and 20% of them were active in at least one assay; those are over-represented in the sample as a whole.
measure: growth (%)

{"compound": "Cc1cccc2c3c(sc12)C(c1ccc(Cl)cc1)C(C#N)=C(N)O3 (stereo not given)", "numeric-readout": 30.1}
{"compound": "Cc1ccc2sc3c(NCCN)nc4ccccc4c3c(=O)c2c1", "numeric-readout": 73.3}
{"compound": "COc1cc(C(=O)c2cnc(-c3c[nH]c4cccc(C)c34)[nH]2)cc(OC)c1OC", "numeric-readout": 20.4}
{"compound": "COc1ccc(-c2[nH]ncc2-c2cc3c(c(OC)c2)OCC(=O)N3)cc1", "numeric-readout": 35.2}
{"compound": "CCCCOc1nc2ccc(OC)cc2cc1-c1cc(-c2ccc(Cl)cc2)nc(-c2ccc(Cl)cc2)c1", "numeric-readout": 99.3}
{"compound": "COc1ccc2c(c1)c(-c1nn3cc(-c4cccs4)nc3s1)cn2C", "numeric-readout": 81.1}
{"compound": "CCCC1CCC(O)(C(C)(O)C(=O)NC2C(=O)N3NCCCC3C(=O)N(O)C(C)C(=O)N3NCCCC3C(=O)N3NCC(O)CC3C(=O)NC(C)C(=O)OC2C(C)C)OC1CC (stereo not given)", "numeric-readout": -66.4}
{"compound": "COc1cccc(-c2nc(-c3ccc(NC(=O)OC(C)C)cc3)[nH]c2-c2ccnc(Br)c2)c1", "numeric-readout": 29}
{"compound": "COc1nc2ccc(C)cc2cc1-c1nc2c(cnn2-c2ccccc2)c(=O)[nH]1", "numeric-readout": 84.3}
{"compound": "Cc1cc2[nH]c(=O)c3c4ncccc4cn3c2cc1C", "numeric-readout": 49.8}
{"compound": "CN1C(=O)CNC(=O)[C@H](NC(=O)c2nc3ccccc3cc2O)CSSC[C@H]1C(=O)NCCc1nc2ccccc2cc1O", "numeric-readout": 38.8}
{"compound": "N#CC1=C(N)Oc2c(sc3c(Br)cccc23)C1c1ccc(Br)cc1 (stereo not given)", "numeric-readout": 25.5}
{"compound": "Cc1nc2nc(SCC(=O)O)[nH]c2c(=O)[nH]1", "numeric-readout": 86.6}
{"compound": "O=C(Nc1c2ccccc2nc2ccccc12)c1ccccc1CN1C(=O)c2ccccc2C1=O", "numeric-readout": 18.8}
{"compound": "Cc1nc(S(=O)(=O)c2ccccc2)c(S(=O)(=O)Cc2ccc([N+](=O)[O-])cc2)o1", "numeric-readout": 97.6}
{"compound": "COc1ccc(CNC(=O)[C@H](O)[C@@H](N)Cc2ccccc2)cc1", "numeric-readout": 108}
{"compound": "COc1ccc(N2C(=O)C(Oc3ccccc3)C2c2ccc(C)cc2)cc1 (stereo not given)", "numeric-readout": 90.5}
{"compound": "Cc1nc2ccccc2n1-c1ncnc2c1CC(C)c1ccccc1N2C (stereo not given)", "numeric-readout": 70.8}
{"compound": "OC(COc1ccccc1)CN1CCN(c2ccc(Cl)cc2)CC1 (stereo not given)", "numeric-readout": 87.1}
{"compound": "O=C(O)C(c1ccccc1)N1C(=O)CSC1=S (stereo not given)", "numeric-readout": 92}
{"compound": "COc1cccc(-c2nc(-c3ccc(NC(=O)C(C)C)cc3)[nH]c2-c2ccnc(Br)c2)c1", "numeric-readout": 38.8}
{"compound": "O=C1/C(=C/c2ccc(F)cc2)Sc2c(Br)cccc21", "numeric-readout": 68.9}
{"compound": "CCCCCCCCCCCCCCCCCC1OCC(COC(=O)O[C@]2(CC)C(=O)OCc3c2cc2n(c3=O)Cc3cc4ccccc4nc3-2)O1 (stereo not given in full)", "numeric-readout": 78.5}
{"compound": "c1ccc2cc(C[n+]3ccn(CCCCCCn4cc[n+](Cc5ccc6ccccc6c5)c4)c3)ccc2c1", "numeric-readout": 38.6}
{"compound": "c1cc2nc(-c3cn[nH]c3)c3c(c2cc1-c1cn[nH]c1)C1CCC3C1 (stereo not given)", "numeric-readout": 74}
